Listed here: items and their measured KD relative to parental chimera.
Target: T1, Cynomolgus Monkey VSIG4-L-His (cynomolgus monkey)
T1 construct: ECD with His tag; also called cyVSIG4-L; cyno VSIG4-L-His
T1 chain: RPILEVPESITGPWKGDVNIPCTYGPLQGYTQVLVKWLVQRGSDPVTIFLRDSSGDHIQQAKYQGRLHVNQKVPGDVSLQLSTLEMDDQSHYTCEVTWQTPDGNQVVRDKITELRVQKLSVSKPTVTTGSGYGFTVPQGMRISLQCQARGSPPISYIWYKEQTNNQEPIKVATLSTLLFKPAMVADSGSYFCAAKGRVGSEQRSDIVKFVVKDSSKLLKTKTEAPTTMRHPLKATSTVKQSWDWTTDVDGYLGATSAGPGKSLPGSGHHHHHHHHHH
Test: BLI, IgG on AHC sensor, antigen 100 nM
Answer format: numeric, fold implied, no suffix.

Below: 2 binders and their reported KD relative to parental chimera.
• h13H11.D humanized IgG4 (S228P) kappa (antibody, V domains shown) VH: QIQLVQSGSELKKPGASVKVSCKASGYTFENFGMNWVRQAPGQGLEWMGWINTYTGEATYADGFTGRFVFSLDTSVSTAYLQISSLKAEDTAVYYCARDGGFRHFDVWGQGTTVTVSS VL: DTQVTQSPSSLSASVGDRVTITCQTSTDISNYMNWYQQKPGKAPKLLISEGNTLRPGVPSRFSSSGSGTDFTFTISSLQPEDIATYYCLQSDNLPLTFGGGTKLEIKR = 1.7
• 16E10 mouse/human chimeric IgG4 (S228P) kappa (antibody, V domains shown) VH: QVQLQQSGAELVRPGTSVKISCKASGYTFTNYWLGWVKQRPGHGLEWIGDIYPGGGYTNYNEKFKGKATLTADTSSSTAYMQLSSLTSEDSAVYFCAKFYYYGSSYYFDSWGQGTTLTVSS VL: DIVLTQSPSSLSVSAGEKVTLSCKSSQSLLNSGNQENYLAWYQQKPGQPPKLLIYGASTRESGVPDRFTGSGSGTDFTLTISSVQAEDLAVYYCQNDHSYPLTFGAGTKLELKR = 1

Next:
I have this binder here, 12A12 mouse/human chimeric IgG4 (S228P) kappa (antibody, V domains shown) VH: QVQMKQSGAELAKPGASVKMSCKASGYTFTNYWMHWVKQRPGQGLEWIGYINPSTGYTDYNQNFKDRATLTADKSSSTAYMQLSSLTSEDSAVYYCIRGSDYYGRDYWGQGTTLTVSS VL: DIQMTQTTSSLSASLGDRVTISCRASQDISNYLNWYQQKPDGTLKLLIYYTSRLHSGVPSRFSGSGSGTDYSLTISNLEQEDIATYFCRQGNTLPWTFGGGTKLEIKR , and I need its recorded KD relative to parental chimera.
1

Measured values drawn from patent US20230348603A1 for this set.
